# Tested On: hemoglobin (20% hct blood) (Homo sapiens, UniProt P68871+P69905)
# Construct: Normal whole blood was collected from adult healthy donors; from tissue; host or cells: normal human whole blood (red blood cells), adult healthy donors
# Sequence (P69905 2-142 limits assumed): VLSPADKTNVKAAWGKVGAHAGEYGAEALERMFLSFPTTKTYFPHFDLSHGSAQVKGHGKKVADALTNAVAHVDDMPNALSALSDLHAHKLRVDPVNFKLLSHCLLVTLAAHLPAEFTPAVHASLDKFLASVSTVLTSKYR
# Sequence (P68871 2-147 limits assumed): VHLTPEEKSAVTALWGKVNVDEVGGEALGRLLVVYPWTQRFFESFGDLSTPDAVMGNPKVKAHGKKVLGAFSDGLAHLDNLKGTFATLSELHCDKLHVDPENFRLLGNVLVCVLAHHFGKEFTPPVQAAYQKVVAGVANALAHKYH
# Test Method Notes: Dose-dependent whole blood OEC studies
# Type: cell-based
# Protocol Conditions: 0.2 mM compound, 37° C., 1 hr
Hi there, I'd appreciate the recorded delta p50 0.2 mM for every entry that follows.
Give the value in % but do not write % after it.

Supply measured delta p50 0.2 mM of "[2H]C([2H])(Oc1cc(F)cc(O)c1C=O)c1ncccc1-c1ccnn1C(C)C" in your reply.
−15.30

Supply measured delta p50 0.2 mM of "CC(C)n1nccc1-c1nccc(F)c1COc1cccc(O)c1C=O" in your reply.
−15.8

Supply measured delta p50 0.2 mM of "[2H]C(C)(C)n1nccc1-c1ncccc1COc1cccc(O)c1C=O" in your reply.
−11

Supply measured delta p50 0.2 mM of "[2H]C([2H])(Oc1ccc2ncoc2c1C=O)c1cncnc1-n1ccnc1C(C)C" in your reply.
−9.90

Supply measured delta p50 0.2 mM of "[2H]C([2H])(Oc1cccc(O)c1C=O)c1cncnc1-c1c(F)cnn1C(C)C" in your reply.
−14.40

Supply measured delta p50 0.2 mM of "CC(C)n1nccc1-c1ncsc1COc1cccc(O)c1C=O" in your reply.
−11.20

Supply measured delta p50 0.2 mM of "[2H]C([2H])([2H])C(n1ncc(F)c1-c1ncccc1COc1cccc(O)c1C=O)C([2H])([2H])[2H]" in your reply.
−12.70

Supply measured delta p50 0.2 mM of "CC(C)n1ncc(F)c1-c1ncccc1COc1ccc2ncoc2c1C=O" in your reply.
−12.90

Supply measured delta p50 0.2 mM of "CC(C)n1nccc1-c1ncccc1COc1ccc2sncc2c1C=O" in your reply.
−12.80

Supply measured delta p50 0.2 mM of "CC(C)n1nccc1-c1ncn(C)c1COc1cccc(O)c1C=O" in your reply.
−21.40

The measured values listed here are drawn from patent US10787430B2.
